// values below are reported Ratio OD(Variant)/OD(WT)
Target: HRgpA-6H (Porphyromonas gingivalis) (UniProt P28784)
Test: ELISA, FASEBA Fab on coated HRgpA-6H
Keep it simple and answer with nothing but the number.

Solved cases (2 shown):
Read the entry KB001 mouse Fab VL T24N/G67D (Fab, V domains shown) VH: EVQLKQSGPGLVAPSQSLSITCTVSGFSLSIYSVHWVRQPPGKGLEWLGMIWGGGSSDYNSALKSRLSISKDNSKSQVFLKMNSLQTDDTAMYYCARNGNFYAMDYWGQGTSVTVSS VL: QIVLTQSPAIMSASLGERVTMTCNASSSVSSSFLHWYQQKPGSSPQLWIYSTSNLASGVPARFSGSDSGTSYSLTISSMEAEDAATYYCHQYHHSPYIYTFGGGTKLEIK and write its reported Ratio OD(Variant)/OD(WT).
0.982

Read the entry KB001 mouse Fab VL S53D (Fab, V domains shown) VH: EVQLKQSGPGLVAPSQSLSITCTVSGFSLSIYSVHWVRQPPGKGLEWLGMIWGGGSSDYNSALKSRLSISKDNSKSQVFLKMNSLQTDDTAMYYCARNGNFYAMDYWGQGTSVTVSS VL: QIVLTQSPAIMSASLGERVTMTCTASSSVSSSFLHWYQQKPGSSPQLWIYSTDNLASGVPARFSGSGSGTSYSLTISSMEAEDAATYYCHQYHHSPYIYTFGGGTKLEIK and write its reported Ratio OD(Variant)/OD(WT).
0.984

# evaluate next
Read the entry KB001 mouse Fab VL T52K (Fab, V domains shown) VH: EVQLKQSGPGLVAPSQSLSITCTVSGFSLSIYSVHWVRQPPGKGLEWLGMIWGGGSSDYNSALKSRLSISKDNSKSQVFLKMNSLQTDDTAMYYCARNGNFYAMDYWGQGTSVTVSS VL: QIVLTQSPAIMSASLGERVTMTCTASSSVSSSFLHWYQQKPGSSPQLWIYSKSNLASGVPARFSGSGSGTSYSLTISSMEAEDAATYYCHQYHHSPYIYTFGGGTKLEIK and write its reported Ratio OD(Variant)/OD(WT).
0.865
